Readings of melting point for the listed compounds
Give the value in °C but do not write °C after it.

Worked cases, melting point given:
• O=C(C=CC(=O)Oc1ccccc1)Oc1ccccc1 = 73
• C=C(C)C1(O)C2OC(=O)C1C1(O)C3OC3C3(CO3)C1(C)C2O (stereo not drawn) = 225
• O=C(Cl)c1ccc(Br)cc1F = 25
• O=Cc1ccc(-c2ccc(C(=O)O)cc2)cc1 = 150
• CN1CCc2c(c3ccccc3n2Cc2ccccc2)C1 = 95
• c1ccc(-n2ccnc2)cc1 = 13

Would you kindly look at the next entry?
Input: May I ask what melting point has been recorded for CN(C)C(=O)Nc1ccc(SC(F)(F)Cl)c(Cl)c1 ?
Output: 114

---

Below, each of the molecules is paired with its reported melting point value.

Recorded results for 4 molecules are shown here.
- O=C(O)c1cc([N+](=O)[O-])ccc1N1CCOCC1: 166 to 172 °C
- Sc1nnc(SCCSc2nnc(S)s2)s1: 202 to 204 °C
- Ic1ccc(Cn2cccn2)cc1: 80 to 81 °C
- N#Cc1c(O)ccc([N+](=O)[O-])c1O: 239 to 240 °C

Input: // lookup melting point for O=[N+]([O-])c1cccc2c(Br)n[nH]c12
Output: 175 to 185 °C

Input: Fill in the blank: the reported melting point of c1coc(C2CNCCN2)c1 (stereo unspecified) is ____.
Output: 87 °C

Input: Quick one: melting point for CCC(=O)c1ccco1 ?
Output: 28 °C

Input: What does the record list as melting point for CC/C=C(\C)C(=O)O ?
Output: 24.4 °C

Input: Please look up its melting point: Nc1ccc(C2(c3ccc(N)cc3)OC(=O)c3ccccc32)cc1
Output: 203 °C

Input: Return reported melting point; argument: OCc1ccc(-c2ccccn2)s1
Output: 86 to 88 °C

Input: Can you look up the measured melting point of CSc1c(C#N)c(N)nc2c(/N=N/c3cccc(C(F)(F)F)c3)c(N)nn12 for me?
Output: 293 °C

Input: # input molecule: Brc1ccc(Oc2ccc(Br)c(Br)c2)c(Br)c1 ; wanted: its melting point
Output: < 20 °C

Input: GET /values?readout=melting point&item= Cc1ccc(S(=O)(=O)N[C@@H](c2ccccc2)[C@@H](N)c2ccccc2)cc1
Output: 127 to 130 °C

Input: Look up melting point for this molecule: O=C(Nc1ccc(Oc2ccc(Cl)cc2)c(Cl)c1)c1cc(I)cc(I)c1O
Output: 169 °C

---

Listed here are compounds together with their documented melting point.

Input: Recorded melting point for O=S(=O)(Cl)c1csc(C(F)(F)F)c1-c1ccccc1 , please?
Output: 86 to 87 °C

Input: Fill blank: measured melting point of the compound COc1ccc(OCC(N)=O)cc1 is ____.
Output: 114 to 116 °C

Input: Need melting point of Nc1[nH]ncc1-c1ccc(F)cc1 , thanks.
Output: 174 to 175 °C

Input: melting point for CN1CCN(Cc2ccc(C#N)cc2)CC1 ?
Output: 69 to 71 °C

---

Quick reference: melting point of the listed items.

Use these answered entries as a reference point.
- O=[N+]([O-])c1ccc(NCc2ccccc2)c2nonc12: 206 to 209 °C
- CCCCCOC(=O)C1=C(C)NC(=O)NC1c1ccco1 (centres undefined): 166 to 167 °C
- CC(=O)c1ccc(Oc2ccc(Cl)cc2)cc1Cl: 54 to 56 °C
- Cn1nnc2cc(CO)ccc21: 94 to 96 °C
- CCOC(=O)C1=C(C)NC(C)=C(C(=O)OCC)C1C: 132 to 139 °C

Input: // returns reported melting point for input Clc1ccc(NC2=NCCN2)cc1
Output: 147 to 148 °C

Input: // melting point lookup, key: CCCOc1c(Cl)cc(C(=O)O)cc1Cl
Output: 129 to 132 °C

Input: Endpoint output: melting point of BrCCC(Br)CBr (centres undefined) . Value?
Output: -18 °C

Input: Value lookup for melting point; key = CCN(CC)c1ccc(C(c2ccc(N(CC)CC)cc2C)c2ccc(N(CC)CC)cc2C)c(C)c1
Output: 163 to 165 °C

Input: If you can, please state the reported melting point value of O=C(C(=O)c1cccs1)c1cccs1 .
Output: 82.5 °C

Input: Would you mind telling me what melting point value was observed for Cc1cc(C)c(N)c(I)c1 ?
Output: 65 °C

Input: Data request, read-out melting point, for COc1cc(Cl)c(OC)cc1N
Output: 120 °C

Input: Name the reported melting point value associated with the compound CN(C)c1cccc2oc3c(cnn3-c3ccccc3)c(=O)c12
Output: 184 to 186 °C

Input: Can you share its melting point? I mean this compound: COC(=O)c1c(OC)c(OC)c(OC)c(C(=O)OC)c1C(=O)OC
Output: 84 to 85 °C

---

resultType: melting point

Example compounds with recorded melting point:
* Cc1nc2scc(-c3ccccc3)c2c(=O)n1NC(=O)c1ccccc1Cl | 209 to 210 °C
* Brc1ccc2nccn2c1 | 76 to 78 °C
* Nc1n[nH]cc1Br | 133 to 135 °C

Next up:
Input: Need melting point of N#CC1(C(=O)c2ccccc2)C(c2ccc(F)cc2)NC(=O)NC1c1ccc(F)cc1 (centres undefined) , thanks.
Output: 226 to 227 °C

---

Overview of reported melting point across a group of compounds:
Kindly answer with a numeric value in °C, unit omitted.

* CCCCCCCCCCCCC1=C(OC(C)=O)C(=O)c2ccccc2C1=O | 59.6

Input: Which melting point reading was recorded for the compound COc1cc(/C=C/C(=O)O)ccc1O ?
Output: 173

Input: Looking for the measured melting point of CC(=O)c1cnc2ccccc2n1 , can you help?
Output: 78

Input: Value lookup for melting point; key = Cc1ccc2c(c1)CCCN2
Output: 35

Input: Would you mind telling me what melting point value was observed for CCCN(CCC)C(=O)C(CCC(=O)O)NC(=O)c1ccccc1 (stereo not drawn) ?
Output: 142

Input: Quick check: melting point of CC(C)CCCC(C)C1CCC2C3CC(=O)C4(O)CC(=O)CCC4(C)C3CCC12C (stereo not drawn) ?
Output: 222

Input: // lookup melting point for CCCCCCC(O)CC=CCCCCCCCC(=O)O (stereo not drawn)
Output: 5.5

Input: Sample Cc1noc2c1c(=O)n(-c1ccccc1)c1ccccc21 — what was its melting point?
Output: 283

---

In this section, each of the molecules is paired with its reported melting point.

Examples with answers:
* N#Cc1cccc(N=C=O)c1 | 53 °C
* COc1ccc(Oc2ccc(C(N)=NO)cc2[N+](=O)[O-])cc1 | 174 to 177 °C
* CCN(CC)CCNc1ccc(C)c2sc3ccccc3c(=O)c12 | 64.5 °C
* Nc1c([N+](=O)[O-])cnc2ccccc12 | 273 to 275 °C
* N#Cc1conc1N | 140 °C
* Cc1cc(=O)[nH]c2c(/N=N/c3cccc([N+](=O)[O-])c3)c(N)nn12 | 318 °C

Here is the next item to consider.
Input: Sample Nc1c(Br)cc([N+](=O)[O-])cc1Br — what was its melting point?
Output: 207 °C

---

Here the recorded melting point is given for each entry.

* O=C(O)c1ccccc1-c1cccs1 | 92 to 95 °C
* Brc1ccc(Oc2cccc(Br)c2)cc1 | < 20 °C

Input: Please give the measured melting point for this compound: NC(=S)COc1ccccc1Cl
Output: 116 to 117 °C

Input: Param item = ClCC1CN(Cc2ccccc2)CCO1 (centres undefined) ; retrieve measured melting point.
Output: 46 to 50 °C

---

resultType: melting point

Take a look at these entries with their results.
* N[C@@H](CCCCNC(=O)OCc1ccccc1)C(=O)O | 259 °C
* O=C1C(=O)C(Cl)=C(Cl)C(Cl)=C1Cl | 125 to 129 °C

API: the following record is the query input.
Input: Param item = COC(=O)CCC(C)C1CCC2C3C(=O)C(Br)C4CCCCC4(C)C3CCC12C (stereo not drawn) ; retrieve measured melting point.
Output: 123 to 124 °C

---

We label by threshold. Values of melting point strictly beneath 90 °C are Criterion met. Values of 90 °C and up are Criterion not met.

Recorded results for 7 molecules are shown here.
* Oc1ccc2ccccc2c1Br | Criterion met
* O=C1CCCC(=O)O1 | Criterion met
* CC(O)C(O)C(O)C(O)C=O (stereo not given) | Criterion not met
* N#CCC(=O)c1ccc(N)cc1 | Criterion not met
* CC12CCC(C(=O)/C(=N\Nc3ccccc3)C1=O)C2(C)C (stereo not given) | Criterion not met
* C=CCc1cc(OC)c2c(c1OC)OCO2 | Criterion met
* O=C(NC(Cc1c[nH]c2ccccc12)C(=O)O)OCc1ccccc1 (stereo not given) | Criterion not met

Next molecule, please.
Input: Record CN1C(=O)C(O)N=C(c2ccccc2Cl)c2cc(Cl)ccc21 (stereo not given) : is its melting point strictly below 90 °C?
Output: Criterion not met
